measured-endpoint: melting point

Guide cases for melting point, answers given:
CCCCc1nc2c(cnn2CCO)c2nc(-c3ccc(F)cc3)nn12 [Example 134]; 150.5 to 151.5 °C
CCc1nc2ccccc2c2nc(-c3ccc(OC)cc3)nn12 [Example 71]; 167.5 to 168 °C
CCCCc1nc2nn(CC)cc2c2nc(-c3ccc(C)cc3)nn12 [Example 143]; 128 to 129 °C
CCCCc1nc2c(cnn2CCC)c2nc(-c3ccc(C)cc3)nn12 [Example 122]; 113 to 113.5 °C
CCCCc1nc2nn(CCO)cc2c2nc(-c3ccccc3)nn12 [Example 133]; 160.5 to 162 °C

Provide measured melting point value, entry: CCCCCc1nc2ccccc2c2nc(-c3ccc(O)cc3)nn12 [Example 157] 214 to 215 °C

Provide measured melting point value, entry: CCCCc1nc2nncc-2c2nc(-c3ccc(OCCC)cc3)[nH]n12 [Example 14] 191 to 192 °C

Provide measured melting point value, entry: CCCCc1nc2ccccc2c2nc(-c3ccc(C(C)(C)C)cc3)nn12 [Example 29] 106 to 108 °C

Provide measured melting point value, entry: CCCc1nc2nncc-2c2nc(-c3ccc(C)cc3)[nH]n12 [Example 60] 274 to 275 °C

###

measured-endpoint: melting point

CCCCCCc1nc2ccccc2c2nc(-c3ccccc3)nn12 [Example 94]; 92 to 93 °C
CCCc1nc2ccccc2c2nc(-c3ccccc3)nn12 [Example 21]; 143 to 144 °C
CCCCc1nc2nncc-2c2nc(-c3ccc(SC)cc3)[nH]n12 [Example 56]; 204 to 205 °C

Provide measured melting point value, entry: COC(=O)CCCc1nc2nncc-2c2nc(-c3ccc(C)cc3)[nH]n12 [Example 92] 196.5 to 197 °C

Provide measured melting point value, entry: Cc1ccc(-c2nc3c4cnnc-4nc(CCCC(=O)O)n3[nH]2)cc1 [Example 150] 249 to 251 °C

###

Listed here are compounds together with their documented melting point.

Provide measured melting point value, entry: CCCCCc1nc2ccccc2c2nc(-c3ccc(OC)cc3)nn12 123 to 125 °C

Provide measured melting point value, entry: CCCCc1nc2nn(C)cc2c2nc(-c3ccc(C)cc3)nn12 180 to 181 °C

Provide measured melting point value, entry: CCCCc1nc2ccccc2c2nc(-c3ccc([N+](=O)[O-])cc3)nn12 194 to 195 °C

Provide measured melting point value, entry: CCCCc1nc2nn(CC(=O)O)cc2c2nc(-c3ccccc3)nn12 > 281 °C (dec.)

Provide measured melting point value, entry: CCCCc1nc2nn(CC)cc2c2nc(-c3ccc(Cl)cc3)nn12 141 to 142 °C

###

Listed here are compounds together with their documented melting point.

Guide cases for melting point, answers given:
CCc1nc2nncc-2c2nc(-c3ccc(C)cc3)[nH]n12 [Example 65]; > 280 °C
CCCc1nc2cc(Cl)ccc2c2nc(-c3ccccc3)nn12 [Example 79]; 147 to 149 °C

Here's the next entry for you.
Provide measured melting point value, entry: O=C(O)CCCc1nc2ccccc2c2nc(-c3ccc(Cl)cc3)nn12 [Example 156] 227 to 228 °C

###

measured-endpoint: melting point

Guide cases for melting point, answers given:
CCCCc1nc2c(cnn2CCO)c2nc(-c3ccc(C)cc3)nn12; 134 to 136 °C
CCCCc1nc2nn(C)cc2c2nc(-c3ccccc3)nn12; 184 to 185 °C

Provide measured melting point value, entry: CCCCc1nc2cccc(C)c2c2nc(-c3ccccc3)nn12 123 to 124 °C
